Cited source: patent US20250163057A1

compounds and their reported pIC50
Tested on: Cullin-3 (CUL3) neddylation
Assay: AlphaLISA assay for Cullin-3 (CUL3) neddylation in TF 1 cells
Format: cell-based
Details: Homo sapiens, TF-1, 3 h, 3 hours treatment
pIC50: −log10 of the molar value.

Past entries and their recorded results:
compound=CCN1C(=O)[C@@H](NC(=O)c2cccc(C(F)(F)F)c2)[C@@H](c2ccc(F)cc2)c2c(C(=O)N(C)[C@H](C)C#N)nn(C3CCOCC3)c21 readout_kind=pIC50 result="≥ 7.00"
compound=CCN1C(=O)[C@@H](NC(=O)c2cccc(C(F)(F)F)c2)[C@@H](C2CC2)c2c(C(=O)N(CC#N)CCCN(C)C)nn(C3CCOCC3)c21 readout_kind=pIC50 result="≥ 7.00"
compound=CCN1C(=O)[C@@H](NC(=O)c2ccc3cc[nH]c3c2)[C@@H](C2CC2)c2c(C(=O)N3[C@H](C#N)C[C@H]4C[C@H]43)nn(C3CCOCC3)c21 readout_kind=pIC50 result="≥ 7.00"

// returns reported pIC50 for input CCN1C(=O)C(NC(=O)c2cccc(C(F)(F)F)c2)[C@@H](C2CC2)c2c(C(=O)N3CC(NC)CC3C#N)nn(C3CCOCC3)c21 (stereo in doubt)
< 6.00

What would you report for CCN1C(=O)[C@@H](NC(=O)N2CCC[C@@H](C(F)(F)F)C2)C(c2ccc(F)cc2)c2c(C(=O)N3CCC[C@H]3C#N)nn(-c3ccccc3)c21 (single isomer, unassigned) ?
< 6.00

What would you report for CCN1C(=O)[C@@H](NC(=O)c2cccc(C(F)(F)F)c2)[C@@H](c2ccc(F)cc2)c2c(C(=O)N(C)[C@H](C#N)CCN(C)C)nn(C3CCOCC3)c21 ?
≥ 7.00

What would you report for C=C(CN1CCC1)C(=O)NCc1nn(-c2ccccc2)c2c1[C@@H](C1CC1)[C@@H](NC(=O)c1cccc(C(F)(F)F)c1)C(=O)N2CC (stereo in doubt) ?
< 6.00

What would you report for CCN1C(=O)[C@@H](NC(=O)c2cccc(C(F)(F)F)c2)[C@@H](C2CC2)c2c(C(=O)N(CC#N)C3CC3)nn(-c3ccccc3)c21 ?
6.00 to 7.00

What would you report for CCN1C(=O)[C@@H](NC(=O)c2cccc(C(F)(F)F)c2)[C@@H](c2ccc(F)cc2)c2c(CNC#N)nn(-c3ccccc3)c21 ?
≥ 7.00

What would you report for CCN1C(=O)[C@@H](NC(=O)c2cccc(C(F)(F)F)c2)[C@@H](c2ccc(F)cc2)c2c(C(=O)N3CCC[C@H]3C#N)nn(-c3cccc(OCCN4CC5(COC5)C4)c3)c21 ?
≥ 7.00

What would you report for CCN1C(=O)[C@@H](NC(=O)c2cccc(C(F)(F)F)c2)[C@@H](C2CC2)c2c(C(=O)N3C[C@H](OC)C[C@H]3C#N)nn(C3CCOCC3)c21 ?
≥ 7.00

What would you report for C=C(C(=O)O)c1nn(-c2ccccc2)c2c1[C@@H](c1ccc(F)cc1)[C@@H](NC(=O)c1cccc(C(F)(F)F)c1)C(=O)N2CC ?
< 6.00

What would you report for C=CC(=O)N(C)Cc1nn(-c2ccccc2)c2c1[C@H](c1ccc(F)cc1)[C@H](NC(=O)c1cccc(C(F)(F)F)c1)C(=O)N2CC (racemic) ?
< 6.00

What would you report for CCN1C(=O)[C@H](NC(=O)c2cccc(C(F)(F)F)c2)[C@H](c2ccc(F)cc2)c2c(C(=O)N3CCC[C@H]3C#N)nn(C3CCOCC3)c21 ?
< 6.00

What would you report for CCN1C(=O)[C@@H](NC(=O)c2cccc(C(F)(F)F)c2)[C@@H](c2ccc(F)cc2)c2c(CN(C)C(=O)/C=C/CN(C)C)nn(-c3ccccc3)c21 ?
< 6.00

What would you report for C=C(CN1CCOCC1)C(=O)N(C)Cc1nn(-c2ccccc2)c2c1[C@H](c1ccc(F)cc1)[C@H](NC(=O)c1cccc(C(F)(F)F)c1)C(=O)N2CC (racemic) ?
6.00 to 7.00

What would you report for CCN1C(=O)[C@@H](NC(=O)c2cccc(C(F)(F)F)c2)[C@@H](c2ccc(F)cc2)c2c(C(=O)N3CCOC[C@H]3C#N)nn(-c3ccccc3)c21 ?
≥ 7.00

What would you report for CCN1C(=O)[C@@H](NC(=O)c2cccc(C(F)(F)F)c2)[C@@H](c2ccc(F)cc2)c2c(C(=O)NCC#N)nn(-c3ccccc3)c21 ?
6.00 to 7.00

What would you report for CCN1C(=O)[C@@H](NC(=O)c2cccc(C(F)(F)F)c2)[C@@H](C2CC2)c2c(C(=O)N(C)CC#N)nn(C3CCOCC3)c21 ?
≥ 7.00

What would you report for CN1C(=O)[C@@H](NC(=O)c2cccc(C(F)(F)F)c2)[C@@H](C2CC2)c2c(C(=O)N3[C@H](C#N)C[C@H]4C[C@H]43)nn(C3CCOCC3)c21 (relative stereo) ?
≥ 7.00

What would you report for CCN1C(=O)[C@@H](NC(=O)c2cccc(C(F)(F)F)c2)[C@@H](c2ccc(F)cc2)c2c(C(=O)N(C)[C@@H](C#N)CCN(C)C)nn(C3CCOCC3)c21 ?
≥ 7.00

###

Tested on: Cullin-3 (CUL3) neddylation
Assay: AlphaLISA assay for Cullin-3 (CUL3) neddylation in TF 1 cells
Format: cell-based
Settings: Homo sapiens, TF-1, 3 h, 3 hours treatment
pIC50: −log10 of the molar value.
readout_kind: pIC50

compound="CCN1C(=O)[C@@H](NC(=O)c2cccc(C(F)(F)F)c2)[C@@H](c2ccc(F)cc2)c2c(C(F)CNC#N)nn(-c3ccccc3)c21 (mixture of isomers)" readout_kind=pIC50 result="≥ 7.00"
compound="CCN1C(=O)[C@@H](NC(=O)c2cccc(C(F)(F)F)c2)[C@@H](c2ccc(F)cc2)c2c(CN(C#N)CCCO)nn(-c3ccccc3)c21 (racemic)" readout_kind=pIC50 result="6.00 to 7.00"

Here is the next item to consider.
// returns reported pIC50 for input CCN1C(=O)[C@H](NC(=O)c2cccc(C(F)(F)F)c2)[C@H](c2ccc(F)cc2)c2c(C(=O)N(CC#N)C3CC3)nn(-c3ccccc3)c21 (stereo in doubt)
< 6.00

###

compounds and their reported IC50
System: Cullin-3 (CUL3) neddylation
Experiment: AlphaLISA assay for Cullin-3 (CUL3) neddylation in TF 1 cells
Type: cell-based
Settings: Homo sapiens, TF-1, 3 h, 3 hours treatment

Past entries and their recorded results:
compound=CCN1C(=O)[C@@H](NC(=O)c2nccc(C(F)(F)F)n2)[C@H](c2ccc(F)cc2)c2c(CC(=O)N(C)CC#N)nn(-c3ccccc3)c21 result="0.1 to 1 µM"
compound="CCN1C(=O)[C@@H](NC(=O)c2cccc(C(F)(F)F)c2)[C@@H](c2ccc(F)cc2)c2c(C(=O)N3CCOC[C@@H]3C#N)nn(-c3ccccc3)c21 (mixture of isomers)" result="≤ 0.1 µM"
compound=CCN1C(=O)[C@@H](NC(=O)c2ccc3ncsc3c2)[C@@H](C2CC2)c2c(C(=O)N3[C@H](C#N)C[C@H]4C[C@H]43)nn(C3CCOCC3)c21 result="0.1 to 1 µM"
compound=CCN1C(=O)[C@@H](NC(=O)c2cccc(C(F)(F)F)c2)[C@@H](c2ccc(F)cc2)c2c(C(=O)N3[C@H](C#N)C[C@@H]4C[C@@H]43)nn(-c3ccccc3)c21 result="0.1 to 1 µM"

Missing value: IC50, Cullin-3 (CUL3) neddylation, entry CN1C(=O)[C@H](NC(=O)c2cccc(C(F)(F)F)c2)[C@H](C2CC2)c2c(C(=O)N3[C@H](C#N)C[C@H]4C[C@H]43)nn(C3CCOCC3)c21 (relative stereo) . Fill in?
> 1 µM

###

Biological target: DCN1 (DCUND1) protein PONY domain (Homo sapiens (Human), UniProt Q96GG9)
Sequence (Q96GG9 60-248): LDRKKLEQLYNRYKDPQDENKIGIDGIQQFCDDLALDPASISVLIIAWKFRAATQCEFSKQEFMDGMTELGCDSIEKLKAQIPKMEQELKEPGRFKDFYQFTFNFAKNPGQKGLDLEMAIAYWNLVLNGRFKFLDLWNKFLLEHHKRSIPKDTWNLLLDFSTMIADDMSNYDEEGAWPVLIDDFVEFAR
Test: TR-FRET assay, DCN1 binding with FAM-labeled probe
Settings: 24 hr after treatment with compound; read-out: TR FRET IC50 24 hr
readout_kind: IC50

Past entries and their recorded results:
compound="C=C(C(=O)OCC)c1nn(-c2ccccc2)c2c1[C@H](c1ccc(F)cc1)[C@H](NC(=O)c1cccc(C(F)(F)F)c1)C(=O)N2CC (racemic) [Compound I-35]" tgt="DCN1 (DCUND1) protein PONY domain (Homo sapiens (Human), UniProt Q96GG9)" readout_kind=IC50 result="≤ 200 nM"
compound="CCN1C(=O)[C@@](CO)(NC(=O)c2cccc(C(F)(F)F)c2)[C@@H](c2ccc(F)cc2)c2c([C@@H](C)NC#N)nn(-c3ccccc3)c21 [Compound I-608]" tgt="DCN1 (DCUND1) protein PONY domain (Homo sapiens (Human), UniProt Q96GG9)" readout_kind=IC50 result="≤ 200 nM"
compound="CCN1C(=O)[C@@H](NC(=O)c2cccc(C(F)(F)F)c2)[C@@H](c2ccc(F)cc2)c2c(C/C=C/C(=O)NCCN(C)C)nn(-c3ccccc3)c21 [Compound I-118]" tgt="DCN1 (DCUND1) protein PONY domain (Homo sapiens (Human), UniProt Q96GG9)" readout_kind=IC50 result="200 to 1000 nM"

Missing value: IC50, DCN1 (DCUND1) protein PONY domain (Homo sapiens (Human), UniProt Q96GG9), entry CCN1C(=O)[C@@H](NC(=O)c2ccc3cn[nH]c3c2)[C@@H](C2CC2)c2c(C(=O)N3[C@H](C#N)C[C@H]4C[C@H]43)nn(C3CCOCC3)c21 [Compound I-563] . Fill in?
1000 to 3000 nM

What would you report for CCN1C(=O)[C@@H](NC(=O)c2cccc(C(F)(F)F)c2)[C@@H](c2ccc(F)cc2)c2c(C(=O)N(C)CC#N)nn(-c3ccccc3)c21 (racemic) [Compound I-398] ?
1000 to 3000 nM

What would you report for CCN1C(=O)[C@@H](NC(=O)c2cccc(C(F)(F)F)c2)[C@@H](c2ccc(F)cc2)c2c(CCN(C#N)CCO)nn(-c3ccccc3)c21 [Compound I-538] ?
≤ 200 nM

What would you report for CCN1C(=O)[C@H](NC(=O)c2cccc(C(F)(F)F)c2)[C@H](c2ccc(F)cc2)c2c(CN(C)C#N)nn(-c3ccccc3)c21 [Compound I-20] ?
1000 to 3000 nM

What would you report for C=C(Cc1nn(-c2ccccc2)c2c1[C@H](c1ccc(F)cc1)[C@H](NC(=O)c1cccc(C(F)(F)F)c1)C(=O)N2CC)C(=O)OC(C)(C)C (racemic) [Compound I-78] ?
1000 to 3000 nM

What would you report for CCN1C(=O)[C@@H](NC(=O)CC#N)[C@@H](C2CC2)c2c(C(=O)N3[C@H](C#N)C[C@H]4C[C@H]43)nn(C3CCOCC3)c21 [Compound I-555] ?
1000 to 3000 nM

What would you report for C=C(CN1CCCC1)C(=O)NCc1nn(-c2ccccc2)c2c1[C@H](c1ccc(F)cc1)[C@H](NC(=O)c1cccc(C(F)(F)F)c1)C(=O)N2CC [Compound I-612] ?
≤ 200 nM

What would you report for C=C(CN1C2CCC1COC2)C(=O)NCc1nn(-c2ccccc2)c2c1[C@H](c1ccc(F)cc1)[C@H](NC(=O)c1cccc(C(F)(F)F)c1)C(=O)N2CC (mixture of isomers) [Compound I-613] ?
≤ 200 nM

What would you report for CCN1C(=O)[C@@H](NC(=O)c2cccc(C(F)(F)F)c2)[C@@H](C2CC2)c2c(C(=O)N3[C@@H]4C[C@@H]4C[C@@H]3C#N)nn(C3CCOCC3)c21 [Compound I-442] ?
200 to 1000 nM

What would you report for CCCn1nc(C(=O)N2CCC[C@H]2C#N)c2c1N(CC)C(=O)[C@H](NC(=O)c1cccc(C(F)(F)F)c1)[C@@H]2C1CC1 [Compound I-571] ?
1000 to 3000 nM

What would you report for CCN1C(=O)[C@@H](NC(=O)c2cccc(C(F)(F)F)c2)[C@@H](c2ccc(F)cc2)c2c(CNC(=O)/C(C)=C/C(=O)OC)nn(-c3ccccc3)c21 (racemic) [Compound I-155] ?
200 to 1000 nM

What would you report for CCN1C(=O)[C@@H](NC(=O)c2cccc(C(F)(F)F)c2)[C@@H](c2ccc(F)cc2)c2c(C(=O)N(C)[C@H](C#N)CCN3CC4CC(C3)O4)nn(-c3ccccc3)c21 [Compound I-312] ?
≤ 200 nM

What would you report for CCN1C(=O)[C@H](NC(=O)c2cccc(C(F)(F)F)c2)[C@H](c2ccc(F)cc2)c2c(CNC(=O)C3=CCN(C)C3)nn(-c3ccccc3)c21 (racemic) [Compound I-86] ?
200 to 1000 nM

What would you report for CCN1C(=O)[C@@H](NC(=O)c2cccc(C(F)(F)F)c2)[C@@H](c2ccc(F)cc2)c2c(C(=O)N3CC(F)(F)C[C@H]3C#N)nn(C3CCOCC3)c21 [Compound I-361] ?
≤ 200 nM
